- System: CP256
- run.description: qHTS profiling for inhibitors of Plasmodium falciparum proliferation (AID 504749); note: nearly all actives have a fitted effect of over 60% in size
- run.parameters: P. falciparum in erythrocytes, SYBR Green DNA, 72 h; series mostly up to 12.8 µM
Results filed as inconclusive are left out. Calls of active or inactive are those of the source. Calls come from the whole dose curve; as a rule, active = well fitted inhibition curve with a large enough effect; inconclusive = small, poorly fitted or top-dose-only effect; inactive = flat fitted curve, though single readings scatter.
Outcome codes: yes (1) (active), no (0) (inactive)

compound	tested.system	answer.label
COc1cc(C2c3cc4c(cc3C(O[C@@H]3OC5COC(c6cccs6)OC5C(O)C3O)C3COC(=O)C23)OCO4)cc(OC)c1O (stereo partly drawn)	CP256	yes (1)
CCCC(=O)O[C@]1(C(=O)CO)CCC2[C@@H]3CCC4=CC(=O)CC[C@]4(C)C3C(O)C[C@]21C (stereo partly drawn)	CP256	no (0)
CC(=O)C[C@H](c1ccc([N+](=O)[O-])cc1)c1c(O)c2ccccc2oc1=O	CP256	no (0)
CN(C)CCCOC1C(C(O)CO)OC2OC(C)(C)O[C@@H]21 (stereo partly drawn)	CP256	no (0)
NC[C@@H]1O[C@H](O[C@@H]2[C@H](O[C@@H]3O[C@H](CO)[C@@H](O)[C@@H]3O)[C@@H](O)[C@@H](N)C[C@H]2N)[C@@H](N)[C@H](O)[C@@H]1O	CP256	no (0)
CC(C)(C)NC[C@H](O)COc1cccc2c1C[C@@H](O)[C@@H](O)C2	CP256	no (0)
CCCCC[C@H](O)/C=C\[C@@H]1[C@H](O)CC(=O)[C@@H]1CCCCCCC(=O)O	CP256	no (0)
CN[C@H]1[C@@H](O)[C@@H](NC)[C@@H]2O[C@@]3(O)C(=O)C[C@@H](C)O[C@H]3O[C@H]2[C@H]1O	CP256	no (0)
CC1(C)OC2CC(=O)OC[C@@]23C1CC(=O)[C@]1(C)C3CC[C@@]2(C)C(c3ccoc3)OC(=O)C3O[C@@]321 (stereo partly drawn)	CP256	no (0)
O=C(O)COCCN1CCN([C@@H](c2ccccc2)c2ccc(Cl)cc2)CC1	CP256	no (0)
OCCN1CCN(CCC=C2c3ccccc3Sc3ccc(Cl)cc32)CC1	CP256	yes (1)
CC(=O)[C@]1(O)CCC2C3C=C(Cl)C4=CC(=O)C5CC5[C@@]4(C)C3CC[C@]21C (stereo partly drawn)	CP256	no (0)
COCC(=O)Nc1c(I)c(C(=O)NC[C@@H](O)CO)c(I)c(C(=O)N(C)C[C@@H](O)CO)c1I	CP256	no (0)
NS(=O)(=O)c1cc2c(cc1C(F)(F)F)N[C@H](Cc1ccccc1)NS2(=O)=O	CP256	no (0)
CO[C@]12C(COC(N)=O)C3=C(C(=O)C(C)=C(N)C3=O)N1CC1NC12 (stereo partly drawn)	CP256	yes (1)
C[C@H]1CS(=O)(=O)CCN1/N=C\c1ccc([N+](=O)[O-])o1	CP256	no (0)
NC(=O)c1cc[n+](CC2=C(C(=O)[O-])N3C(=O)[C@@H](NC(=O)Cc4cccs4)[C@@H]3SC2)cc1	CP256	no (0)
CC(C)NC[C@H]1CCc2cc(CO)c([N+](=O)[O-])cc2N1	CP256	no (0)

====

- tested.system: Rap guanine nucleotide exchange factor 3 (Homo sapiens) (UniProt O95398)
- Sequence (O95398 whole entry, looked up): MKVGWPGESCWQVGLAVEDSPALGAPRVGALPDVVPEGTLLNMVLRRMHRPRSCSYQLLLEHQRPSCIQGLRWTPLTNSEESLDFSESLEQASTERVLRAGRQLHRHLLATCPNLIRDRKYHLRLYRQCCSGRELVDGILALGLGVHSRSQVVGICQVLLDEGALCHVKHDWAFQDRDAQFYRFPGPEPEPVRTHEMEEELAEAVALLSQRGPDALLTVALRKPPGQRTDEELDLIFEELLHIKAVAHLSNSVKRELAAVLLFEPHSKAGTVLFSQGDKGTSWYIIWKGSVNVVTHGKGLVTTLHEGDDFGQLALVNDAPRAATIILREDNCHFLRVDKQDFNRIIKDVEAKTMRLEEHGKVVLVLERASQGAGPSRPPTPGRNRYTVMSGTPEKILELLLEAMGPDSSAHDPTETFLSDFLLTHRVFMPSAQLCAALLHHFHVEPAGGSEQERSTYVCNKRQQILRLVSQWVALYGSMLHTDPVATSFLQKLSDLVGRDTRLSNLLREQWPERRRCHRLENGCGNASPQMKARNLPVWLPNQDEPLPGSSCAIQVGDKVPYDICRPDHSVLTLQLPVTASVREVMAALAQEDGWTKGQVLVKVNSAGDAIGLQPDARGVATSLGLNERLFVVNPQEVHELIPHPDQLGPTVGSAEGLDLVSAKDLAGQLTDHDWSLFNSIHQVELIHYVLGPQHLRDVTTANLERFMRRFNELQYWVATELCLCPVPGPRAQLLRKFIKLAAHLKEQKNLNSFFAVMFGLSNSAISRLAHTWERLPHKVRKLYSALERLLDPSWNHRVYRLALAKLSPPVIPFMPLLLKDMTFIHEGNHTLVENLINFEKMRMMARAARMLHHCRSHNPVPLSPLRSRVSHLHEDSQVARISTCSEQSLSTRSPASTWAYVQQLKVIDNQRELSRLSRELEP
- run.description: Counterscreen qHTS for antagonist of cAMP-regulated guanine nucleotide exchange factor 3 (EPAC1) (AID 1645888);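 note: fluorescence loss as bound BODIPY-GDP is released from Rap1B; % of control where 0% means no effect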
- run.parameters: Rap1B-BODIPY-GDP nucleotide exchange, fluorescence; series mostly up to 154 µM
Inconclusive results are not listed. Active and inactive are the calls of the source. Calls come from the whole dose curve; as a rule, active = well fitted inhibition curve with a large enough effect; inconclusive = small, poorly fitted or top-dose-only effect; inactive = no such curve, though single readings can be large or run the other way.

compound	activity change, negative = inhibition
Cc1ccc(S(=O)(=O)N2CCN(CC(=O)Nc3ccccc3C(=O)NC3CC3)CC2)cc1	-3.04% [at 30.8 µM] (inactive)
CCc1ccc(Nc2n[n+](-c3ccccc3)c(-c3cc(OC)c(OC)cc3Br)s2)cc1	inactive
Cc1ccc(N(CCC#N)C(=O)COC(=O)c2ccccc2SCC(=O)N2CCCC2)cc1	inactive
Cn1cc(CNCc2cn(C)nc2-c2ccc(C3CCCCC3)cc2)cn1	inactive
O=C(c1ccco1)N(CCC(c1ccccc1)c1ccco1)Cc1ccco1 (configuration not stated)	inactive
Cc1ccc(NC(=O)c2ccc(S(=O)(=O)N3CCCCCC3)cc2)nc1	-5.55% [at 30.8 µM] (inactive)
CCOc1ccc(CCNc2ncnc3onc(-c4ccc(Cl)cc4)c23)cc1OCC	inactive
CCO/C(C)=N/Oc1cc(OC)cc(OC)c1	inactive
CCOc1cc(S(=O)(=O)N(CC)CC)ccc1Cl	-20.8% [at 30.8 µM] (inactive)
CC1Cc2nc(SCC(=O)OCc3ccccc3)n(C)c(=O)c2S1 (configuration not stated)	9.81% [at 30.8 µM] (inactive)
O=C(Nc1nncs1)c1ccccc1NS(=O)(=O)c1cccs1	inactive
COc1ccc2oc(C(=O)N(C)CCOc3ccc(Cl)cc3)c(C)c2c1	-14.2% [at 30.8 µM] (inactive)
Cc1ccc(N2NC(=O)/C(=C\c3cc4c(cc3[N+](=O)[O-])OCO4)C2=O)cc1C	inactive
O=C(COc1ccc2ccccc2c1)Nc1cccc(C(=O)Nc2ccccc2C(=O)O)c1	inactive
CN(Cc1ccccc1F)c1nc(-c2cccs2)nc2ccccc12	-18.6% [at 30.8 µM] (inactive)
COC(=O)c1ccc2nc(C3CCCCC3)c(Cc3cccc(F)c3)n2c1	inactive
Nc1c(C(=O)c2ccccc2)sc2nsc(SCCN3CCOCC3)c12	inactive
COC(=O)c1ccc(CNC(=O)/C=C/[C@H]2O[C@@H](n3cc(C)c(=O)[nH]c3=O)C[C@@H]2O)cc1	inactive
O=C(c1ccc(CSCc2ccccc2F)o1)N1CCN(c2ccc(N3CCOCC3)nn2)CC1	-4.38% [at 30.8 µM] (inactive)
CCOC(=O)c1sc(N2C(=O)C(O)=C(C(=O)c3ccco3)C2c2cccc([N+](=O)[O-])c2)nc1C (configuration not stated)	inactive
Cc1cccc(Cn2c(SCc3ccc(C(=O)N4CCCCCC4)cc3)nc3ccncc32)c1	inactive
O=C(CSc1nc(-c2ccc(F)cc2)nc2c1Cc1ccccc1O2)Nc1cccc(C(=O)O)c1	inactive
CCOc1ccc2nc(NC(=O)CSc3nc(-c4ccccc4)c(C#N)c(=O)[nH]3)sc2c1	-3.89% [at 30.8 µM] (inactive)
CCOC(=O)C1=CCN(S(=O)(=O)c2ccc(C)cc2)C1c1cccs1 (configuration not stated)	6.49% [at 30.8 µM] (inactive)
CCOc1cc(/C=N/Nc2ccc(S(=O)(=O)Nc3ccccc3C(=O)O)cc2[N+](=O)[O-])cc(Cl)c1O	inactive
COc1ccc(/C=C/C(=O)NC2CCS(=O)(=O)C2)cc1 (configuration not stated)	inactive
c1ccc(-c2nnc3sc(CN4CCC5(CC4)OCCO5)cn23)cc1	inactive
CC(OC(=O)CN1C(=O)COc2ccccc21)C(=O)NCc1ccc(F)cc1 (configuration not stated)	inactive
CCSc1nc2ccccc2c(=O)n1C1CCOC(C)(C)C1 (configuration not stated)	inactive
COc1ccc(C(=O)N(Cc2ccccc2)c2cccc(C)c2)c(OC)c1OC	inactive
COc1ccc(N2CCN(C(=O)CCc3ccccc3OC)CC2)cc1	inactive
C=CCOc1ccc(/C=C2\SC(=S)N(NS(=O)(=O)c3ccccc3)C2=O)cc1	inactive
COCCNC(=O)CSc1nc2cc3c(cc2c(=O)n1CCCCCC(=O)NCc1ccc(OC)cc1)OCO3	inactive
Cc1ccccc1CN1C(=O)c2ccccc2Sc2ccc(C(=O)O)cc21	inactive
Cc1cccc(NC(=O)Cn2c(O)c(N=NC(=O)c3ccncc3)c3ccccc32)c1	inactive
N#Cc1c(/N=C/c2ccco2)sc2c1CCC2	0.743% [at 30.8 µM] (inactive)
CC(=O)NC(C)c1nc2ccccc2n1Cc1ccccc1Cl (configuration not stated)	inactive
O=c1ccc(-c2ccccc2)nn1Cc1c(F)cccc1Cl	inactive
CN(c1ncnc2onc(-c3cccc(Cl)c3)c12)C1CCCCC1	inactive
COc1ccc(C2c3c(-c4ccccc4O)n[nH]c3C(=O)N2Cc2ccco2)cc1 (configuration not stated)	inactive
COc1ccc(/C=C(\NC(=O)c2cccs2)C(=O)Nc2ccc(C)cc2)cc1OC	inactive
Cc1c(C(=O)OCC(=O)N2CCCC2=O)oc2ccccc12	inactive

====

- tested.system: Rap guanine nucleotide exchange factor 3 (Homo sapiens)
- run.description: Counterscreen qHTS for agonist of cAMP-regulated guanine nucleotide exchange factor 3 (EPAC1) (AID 1645889); note: % of control where 0% means no effect; nearly all actives have a fitted effect of over 40% in size
- run.parameters: EPAC1 Rap1B-BODIPY-GDP exchange, fluorescence; series mostly up to 154 µM
Inconclusive results are not listed. The source made the active and inactive calls. Calls come from the whole dose curve; as a rule, active = well fitted activation curve with a large enough effect; inconclusive = small, poorly fitted or top-dose-only effect, or another doubt; inactive = no such curve, though single readings can be large or run the other way.
property: activation

molecule	property	measurement
Clc1c(Cl)c(Cl)c2n[nH]nc2c1Cl	activation	inactive
Cc1[nH]c2ccccc2c1C(=O)C(C)OC(=O)c1ccc(Cl)nc1 (stereo not drawn)	activation	19.4% [at 30.8 µM] (inactive)
Cn1c(COc2ccc(Cl)cc2)nc2ccccc2c1=O	activation	5.9% [at 30.8 µM] (inactive)
Cc1ccc(Cn2c(SCC(=O)N/N=C/c3ccc(C)o3)nc3ccccc32)cc1	activation	inactive
CC1CCN(C(=O)CSc2nnc(CN3CCOCC3)n2-c2ccccc2)CC1	activation	inactive
CC1(C(=O)NS(=O)(=O)c2ccc(C#N)cc2)CCN1C(=O)C1(c2ccccc2)CCCC1 (stereo not drawn)	activation	inactive
Cc1ccc(CN(C(=O)COc2cccc(Cl)c2)c2ccccn2)o1	activation	inactive
CC1Cc2cc(C(=O)O)ccc2O1 (stereo not drawn)	activation	inactive
COc1cc(CC(=O)Nc2ccccc2N2CCCCC2)cc(OC)c1OC	activation	inactive
CSCCC(NC(=O)c1ccc(Cl)cc1)C(=O)OCC(=O)NCc1ccco1 (stereo not drawn)	activation	-1.33% [at 30.8 µM] (inactive)
O=C(O)c1cc(S(=O)(=O)Nc2cc(Cl)ccc2Oc2ccccc2)ccc1O	activation	inactive
C/C(=N\NC(=O)C1CC1)c1cccs1	activation	inactive
CC(=O)N1c2ccc(S(=O)(=O)N(C)Cc3ccco3)cc2CC1C (stereo not drawn)	activation	inactive
COc1ccc(N(C)S(=O)(=O)c2cccc3nsnc23)cc1	activation	inactive
O=C1CC(Cc2ccccc2)C(=O)N1CCc1ccc2c(c1)OCO2 (stereo not drawn)	activation	1.4% [at 30.8 µM] (inactive)
CCOc1ccc(CCNC(=O)c2cccc(S(=O)(=O)N3CCCCC3)c2)cc1OCC	activation	inactive
CCc1cc(C(=O)c2ccc(OC)cc2)c(NC(=O)CC(C)(C)CC(=O)O)s1	activation	inactive
CCCc1nn2c(=O)cc(COC(=O)c3cccc(NC(=O)CCc4ccccc4)c3)nc2s1	activation	inactive
O=C(COc1ccc(F)cc1)Nc1nccs1	activation	inactive
CCC(C)Sc1c(C(C)C)cnc2c1c(=O)n(C)c(=O)n2C (stereo not drawn)	activation	inactive
Cn1c(=O)cc(N2CCN(C(=O)c3ccco3)CC2)[nH]c1=O	activation	inactive
CC1Cc2nc(SCC(=O)NCc3ccccc3)n(Cc3ccccc3)c(=O)c2S1 (stereo not drawn)	activation	14% [at 30.8 µM] (inactive)
Cc1ccc2c(c1)c1c(c(=O)n(-c3cccc(Cl)c3)c(=O)n1C)n2C	activation	inactive
